Reference source for all entries: patent US7999011B2

test: Arterial blood gas analysis; format: in vivo, rabbit; settings: Ischemia 30 min
Assignment: determine reported PaO2 for the given compounds.
Just the number in mmHg, nothing appended.

Exam item: Entry under review: FC(F)OC(F)(F)C(F)Cl (stereo not shown) . Reported PaO2?
Marked response: 157

Exam item: Entry under review: FC(F)OC(Cl)C(F)(F)F (stereo not shown) . Reported PaO2?
Marked response: 166

Exam item: Entry under review: FCOC(C(F)(F)F)C(F)(F)F . Reported PaO2?
Marked response: 106

Exam item: Entry under review: FC(F)OC(F)C(F)(F)F (stereo not shown) . Reported PaO2?
Marked response: 136

###

test system: myocardial ischemia-reperfusion injury; test: Myocardial infarct size following ischemia and reperfusion (30 min LAD occlusion, 3 h reperfusion); format: in vivo, rabbit; conditions: infarct weight
Assignment: determine reported IF WT for the given molecules.
Just the number in g, nothing appended.

Exam item: Entry under review: FCOC(C(F)(F)F)C(F)(F)F [SEVO, sevoflurane] . Reported IF WT?
Marked response: 0.19

Exam item: Entry under review: FC(F)OC(F)C(F)(F)F (stereo not shown) [DES, desflurane] . Reported IF WT?
Marked response: 0.50

Exam item: Entry under review: FC(F)OC(F)(F)C(F)Cl (stereo not shown) [ENF, enflurane] . Reported IF WT?
Marked response: 0.21

Exam item: Entry under review: FC(F)OC(Cl)C(F)(F)F (stereo not shown) [ISO, isoflurane] . Reported IF WT?
Marked response: 0.18

###

assay: Arterial blood gas analysis; format: in vivo, rabbit; conditions: Infusion
Assignment: determine reported PaCO2 for the given compounds.
Just the number in mmHg, nothing appended.

Exam item: Entry under review: FC(F)OC(F)C(F)(F)F (stereo not shown) . Reported PaCO2?
Marked response: 32

Exam item: Entry under review: FC(F)OC(Cl)C(F)(F)F (stereo not shown) . Reported PaCO2?
Marked response: 34

Exam item: Entry under review: FC(F)OC(F)(F)C(F)Cl (stereo not shown) . Reported PaCO2?
Marked response: 31

Exam item: Entry under review: FCOC(C(F)(F)F)C(F)(F)F . Reported PaCO2?
Marked response: 38

###

Experiment: Systemic hemodynamics during infarct experiment
Type: in vivo, rabbit
Conditions: Reperfusion 3 h
Description: Male New Zealand white rabbits weighing between 2.5 and 3.0 kg were anesthetized with intravenous sodium pentobarbital (30 mg/kg). Additional doses of pentobarbital were titrated as required to assure that pedal and palpebral reflexes were absent throughout the experiment. […] A left thoracotomy was performed at the fourth intercostal space, and the heart was suspended in a pericardial cradle. […] Hemodynamics were continuously recorded on a polygraph throughout experimentation. […]
Assignment: determine reported HR for the given compounds.
Just the number in bpm, nothing appended.

Exam item: Entry under review: FC(F)OC(Cl)C(F)(F)F (stereo not shown) . Reported HR?
Marked response: 195

Exam item: Entry under review: FC(F)OC(F)C(F)(F)F (stereo not shown) . Reported HR?
Marked response: 219

Exam item: Entry under review: FC(F)OC(F)(F)C(F)Cl (stereo not shown) . Reported HR?
Marked response: 210

Exam item: Entry under review: FCOC(C(F)(F)F)C(F)(F)F . Reported HR?
Marked response: 188

###

assay: End-tidal gas analysis; format: in vivo, rabbit; conditions: end-tidal; Infusion
METRIC: EtHalogenated (%)
Just the number in %, nothing appended.

Exam item: Entry under review: FCOC(C(F)(F)F)C(F)(F)F [SEVO, sevoflurane] . Reported EtHalogenated?
Marked response: 0.34

Exam item: Entry under review: FC(F)OC(F)(F)C(F)Cl (stereo not shown) [ENF, enflurane] . Reported EtHalogenated?
Marked response: 0.27

Exam item: Entry under review: FC(F)OC(Cl)C(F)(F)F (stereo not shown) [ISO, isoflurane] . Reported EtHalogenated?
Marked response: 0.31

Exam item: Entry under review: FC(F)OC(F)C(F)(F)F (stereo not shown) [DES, desflurane] . Reported EtHalogenated?
Marked response: 0.37
